Ref: patent US20230399409A1

# TARGET_OF_ASSAY: T1, human IL-36R (human, UniProt Q9HB29 20-575)
# T1 sequence (looked up): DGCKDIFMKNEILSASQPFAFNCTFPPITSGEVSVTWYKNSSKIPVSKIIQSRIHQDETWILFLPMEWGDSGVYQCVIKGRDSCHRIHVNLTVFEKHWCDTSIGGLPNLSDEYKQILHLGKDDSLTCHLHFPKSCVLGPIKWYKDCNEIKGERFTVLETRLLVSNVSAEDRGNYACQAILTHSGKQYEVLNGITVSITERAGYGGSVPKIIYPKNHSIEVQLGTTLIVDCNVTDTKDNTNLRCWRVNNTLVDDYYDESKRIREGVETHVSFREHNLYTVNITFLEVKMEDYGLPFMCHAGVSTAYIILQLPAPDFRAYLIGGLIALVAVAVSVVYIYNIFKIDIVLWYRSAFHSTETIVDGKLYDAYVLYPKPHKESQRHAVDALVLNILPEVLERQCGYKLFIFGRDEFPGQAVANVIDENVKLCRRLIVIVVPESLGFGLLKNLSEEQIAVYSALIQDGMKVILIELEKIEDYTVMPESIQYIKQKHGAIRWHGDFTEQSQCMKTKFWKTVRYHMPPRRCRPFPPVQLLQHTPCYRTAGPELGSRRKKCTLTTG
# EXPERIMENT_DESCRIPTION: cell-based or functional assay
# IC50, IL-8 release under IL-36 γ stimulation (NCI/ADR-RES cells) values compiled below
ENDPOINT_NAME: IC50, IL-8 release under IL-36 γ stimulation (NCI/ADR-RES cells) (µg/mL)

| BINDER | MEASURED |
| --- | --- |
| humanized anti-IL-36R antibody 900534 (antibody, V domains shown, IgG1 (human IgG1 L234A/L235A, human kappa)) VH: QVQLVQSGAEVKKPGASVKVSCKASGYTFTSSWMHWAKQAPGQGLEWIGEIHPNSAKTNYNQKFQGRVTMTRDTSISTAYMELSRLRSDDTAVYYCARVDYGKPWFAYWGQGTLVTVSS VL: QIVLTQSPGTLSLSPGERATLSCRASSSVSSSYLHWYQQKPGQAPRLLIYSTSSRATGIPDRFSGSGSGTDFTLTISRLEPEDFATYYCQQFQSSPLTFGQGTKLEIK | 0.018 |
| humanized anti-IL-36R antibody 900527 (antibody, V domains shown, IgG1 (human IgG1 L234A/L235A, human kappa); also called HB0034) VH: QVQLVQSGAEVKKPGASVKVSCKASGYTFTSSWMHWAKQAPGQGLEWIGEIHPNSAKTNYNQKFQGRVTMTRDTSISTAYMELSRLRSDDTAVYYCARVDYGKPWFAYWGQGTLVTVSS VL: QIVLTQSPGTLSLSPGERATLSCRASSSVSSSYLHWYQQKPGQAPRLWIYSTSSRATGIPDRFSGSGSGTDFTLTISRLEPEDFATYYCQQFQSSPLTFGQGTKLEIK | 0.0198 |
| humanized anti-IL-36R antibody 900513 (antibody, V domains shown, IgG1; built from the chimeric expression plasmids (human IgG1 L234A/L235A, human kappa)) VH: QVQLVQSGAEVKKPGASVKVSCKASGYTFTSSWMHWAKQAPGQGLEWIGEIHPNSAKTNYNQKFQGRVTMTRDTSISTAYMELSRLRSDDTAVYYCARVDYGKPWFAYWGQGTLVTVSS VL: EIVLTQSPGTLSLSPGERATLSCSASSSVSSSYLHWYQQKPGQAPRLWIYSTSNRATGIPDRFSGSGSGTDFTLTISRLEPEDFATYYCQQFQSSPLTFGQGTKLEIK | 0.018 |
| anti-IL-36R chimeric antibody 900497 (antibody, V domains shown, Human-mouse chimera: human IgG1 heavy-chain constant region with L234A and L235A (Eu numbering), human kappa constant region) VH: QVQLQQTGSVLVRPGTSVKLSCKASGYTFTSSWMHWAKQRPGQGLEWIGEIHPNSAKTNYNEKFKGKATLTVDTFSSTAYVDLSSLASEDSAVYYCARVDYGKPWFAYWGQGTLVTVSA VL: QIVLTQSPTIMSASPGERVTMTCSASSSVSSSYLHWYQQKPGSSPKLWIYSTSNLASGVPARFSGSGSGTSYSLTINSMEAEDAATYYCQQFQSSPLTFGAGTKLGLK | 0.0284 |
